Some molecules, each annotated with its measured inhibition.
- tgt: UniProtKB O15530
- Sequence (whole entry): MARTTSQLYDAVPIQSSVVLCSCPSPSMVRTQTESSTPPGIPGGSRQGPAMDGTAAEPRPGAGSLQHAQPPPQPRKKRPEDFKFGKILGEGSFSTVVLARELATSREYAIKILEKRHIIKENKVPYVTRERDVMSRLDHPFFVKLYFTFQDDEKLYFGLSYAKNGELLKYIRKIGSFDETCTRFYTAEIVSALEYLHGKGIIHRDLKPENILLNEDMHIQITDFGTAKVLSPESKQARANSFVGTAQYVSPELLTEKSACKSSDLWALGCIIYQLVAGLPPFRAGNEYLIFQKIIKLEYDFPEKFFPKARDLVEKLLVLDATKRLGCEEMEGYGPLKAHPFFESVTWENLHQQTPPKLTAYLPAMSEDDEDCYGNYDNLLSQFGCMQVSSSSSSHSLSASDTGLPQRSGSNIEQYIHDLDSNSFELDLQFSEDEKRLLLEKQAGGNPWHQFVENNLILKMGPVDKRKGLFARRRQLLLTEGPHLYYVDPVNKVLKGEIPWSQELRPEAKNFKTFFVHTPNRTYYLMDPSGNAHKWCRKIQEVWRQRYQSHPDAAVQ
- protocol.details: Inhibition of PDPK1 at 1 uM

CN1CCN(c2ccc(-c3cnc4c(c3)N(Cc3c(F)ccc(F)c3Cl)CCN4)cn2)CC1 < 50%

QUERY: Look up inhibition for this molecule: `O=C(O)c1ccc(-c2cnc3c(c2)N(Cc2cc(Cl)ccc2C(F)(F)F)CCN3)cc1`
RESULT: < 50%

QUERY: Look up inhibition for this molecule: `CN1CCN(c2ccc(-c3cnc4c(c3)N(Cc3cc(Cl)ccc3C(F)(F)F)CCN4)cn2)CC1`
RESULT: < 50%

QUERY: Look up inhibition for this molecule: `CC(=O)N1CCN(c2cc(-c3cnc4c(c3)N(Cc3cc(Cl)ccc3C(F)(F)F)CCN4)ccn2)CC1`
RESULT: < 50%

QUERY: Look up inhibition for this molecule: `O=C(c1ccc(-c2cnc3c(c2)N(Cc2cc(Cl)ccc2C(F)(F)F)CCN3)cc1)N1CCC(N2CCCC2)CC1`
RESULT: < 50%
